Test system: MARIMO
Test: cell viability relative to vehicle control; higher = less cytotoxic;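 note: after 48 h exposure read by CellTiter-Glo luminescence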
Details: 10 µM; SRSF2 genotype: SRSF2 wt/wt
Collected cell viability values appear next to each entry.
Numeric only. Scale: %

The following compounds have reported results that may help.
{"compound": "CC1(C)CCC2(C(=O)O)C(O)CC3(C)C(=CCC4C5(C)CC(O)C(O)C(C)(CO)C5CCC43C)C2C1 (stereo not drawn)", "cell viability / %": 98.5}
{"compound": "CC1CCc2c(N3CCC(O)CC3)c(F)cc3c(=O)c(C(=O)O)cn1c23 (stereo not drawn)", "cell viability / %": 105}

Kindly review the next compound as well.
## Input Could you tell me which cell viability is on file for COc1ccc([C@]2(C#N)CC[C@@H](C(=O)O)CC2)cc1OC1CCCC1 ?
## Output 110

---

System: MOLM14
Test: cell viability relative to vehicle control; higher = less cytotoxic
Conditions: 10 µM; SRSF2 genotype: SRSF2 wt/wt
Where a name gives a salt, the structure may show the parent alone.
Field 'label' (enum: Satisfied / Not satisfied). Set to Satisfied when cell viability is strictly under 80%; else Not satisfied.

{"compound": "N#Cc1c(NC(=O)c2cccc3ccccc23)sc2c1CCCC2 [JNK inhibitor IX]", "class-name": "Satisfied"}

## Input Record CCOc1ccc(Cc2cc([C@@H]3O[C@H](CO)[C@@H](O)[C@H](O)[C@H]3O)ccc2Cl)cc1 [Dapagliflozin] : is its cell viability strictly below 80%?
## Output Not satisfied

## Input Record COc1nc2ccc(Br)cc2cc1[C@@H](c1ccccc1)[C@@](O)(CCN(C)C)c1cccc2ccccc12 [Bedaquiline] : is its cell viability strictly below 80%?
## Output Satisfied

## Input Record O=C1CCCC(=O)C1C(=O)c1ccc(C(F)(F)F)cc1[N+](=O)[O-] [Nitisinone] : is its cell viability strictly below 80%?
## Output Not satisfied

## Input Record C[C@H]1c2cccc(O)c2C(O)=C2C(=O)[C@]3(O)C(O)=C(C(N)=O)C(=O)[C@@H](N(C)C)[C@@H]3[C@@H](O)[C@@H]21 [Doxycycline] : is its cell viability strictly below 80%?
## Output Not satisfied

## Input Record COC(=O)c1cc(OC)c(O)c(OC)c1 [Methyl syringate] : is its cell viability strictly below 80%?
## Output Not satisfied

## Input Record CCCC(=O)OCOC(=O)C1=C(C)NC(C)=C(C(=O)OC)C1c1cccc(Cl)c1Cl (stereo unspecified) [Clevidipine Butyrate] : is its cell viability strictly below 80%?
## Output Not satisfied

## Input Record O=C(NO)c1ccc(CC(=O)N(CCO)c2ccccc2)cc1 : is its cell viability strictly below 80%?
## Output Satisfied

## Input Record C=CCc1ccc(O)c(-c2cc(CC=C)ccc2O)c1 [Magnolol] : is its cell viability strictly below 80%?
## Output Not satisfied

## Input Record CCCCc1nc2cc(/C=C/C(=O)NO)ccc2n1CCN(CC)CC [SB939 (Pracinostat)] : is its cell viability strictly below 80%?
## Output Satisfied

## Input Record C#Cc1cccc(Nc2ncnc3cc(OCCOC)c(OCCOC)cc23)c1 [Erlotinib(OSI-744)] : is its cell viability strictly below 80%?
## Output Not satisfied

## Input Record CC(C)(C(=O)O)c1ccc(C(O)CCCN2CCC(C(O)(c3ccccc3)c3ccccc3)CC2)cc1 (stereo unspecified) [Fexofenadine HCl] : is its cell viability strictly below 80%?
## Output Not satisfied

## Input Record C[C@@H]1O[C@@H](OC[C@H]2O[C@@H](Oc3c(-c4ccc(O)c(O)c4)oc4cc(O)cc(O)c4c3=O)[C@H](O)[C@@H](O)[C@@H]2O)[C@H](O)[C@H](O)[C@H]1O [Rutin (Rutoside)] : is its cell viability strictly below 80%?
## Output Not satisfied

## Input Record CC(C)[C@H](N)C(=O)OCC(CO)OCn1cnc2c(=O)nc(N)[nH]c21 (stereo partly specified) [Valganciclovir Hydrochloride] : is its cell viability strictly below 80%?
## Output Not satisfied

## Input Record CN(C)Cc1ccc(S(=O)(=O)n2ccc(/C=C/C(=O)NO)c2)cc1 [Resminostat (RAS2410)] : is its cell viability strictly below 80%?
## Output Satisfied

## Input Record CN(CCOc1ccc(CC2SC(=O)NC2=O)cc1)c1ccccn1 (stereo unspecified) [Rosiglitazone maleate] : is its cell viability strictly below 80%?
## Output Not satisfied

## Input Record C=C(C(=O)O)C1CCC(C)C2CCC(C)=CC12 (stereo unspecified) [Artemisic acid] : is its cell viability strictly below 80%?
## Output Not satisfied

## Input Record CN(CCO)CC(O)Cn1cnc2c1c(=O)n(C)c(=O)n2C (stereo unspecified) [Xanthinol Nicotinate] : is its cell viability strictly below 80%?
## Output Not satisfied

## Input Record COC1=CC(=O)c2ccccc2C1=O [2-Methoxy-1,4-naphthoquinone] : is its cell viability strictly below 80%?
## Output Satisfied

## Input Record CNCc1ccc(-c2cc(-c3nc(-c4ccc(S(=O)(=O)C(C)C)cc4)cnc3N)on2)cc1 : is its cell viability strictly below 80%?
## Output Satisfied

## Input Record C=C1C[C@@]23CC[C@H]4[C@@](C)(CCC[C@@]4(C)C(=O)O)[C@@H]2CC[C@]1(O[C@@H]1O[C@@H](CO)[C@@H](O)[C@H](O)[C@@H]1O[C@@H]1O[C@@H](CO)[C@@H](O)[C@H](O)[C@@H]1O)C3 [Steviolbioside] : is its cell viability strictly below 80%?
## Output Not satisfied

---

System: OCI-AML2
Experiment: cell viability relative to vehicle control; higher = less cytotoxic
Conditions: 10 µM; SRSF2 genotype: P95H/wt
Where a name gives a salt, the structure may show the parent alone.
Collected cell viability values appear next to each entry.
Numeric only. Scale: %

The following compounds have reported results that may help.
{"compound": "C[C@@H]1[C@H](O)[C@@H](C)/C=C/C=C/C=C/C=C/C=C/C=C/C=C/[C@H](O[C@@H]2O[C@H](C)[C@@H](O)[C@H](N)[C@@H]2O)C[C@@H]2O[C@](O)(C[C@@H](O)C[C@@H](O)[C@H](O)CC[C@@H](O)C[C@@H](O)CC(=O)O[C@H]1C)C[C@H](O)[C@H]2C(=O)O [Amphotericin B]", "cell viability [%]": 126}
{"compound": "CC(=O)Nc1cccc(-n2c(=O)n(C3CC3)c(=O)c3c(Nc4ccc(I)cc4F)n(C)c(=O)c(C)c32)c1", "cell viability [%]": 39.8}
{"compound": "O=C1NC(=O)/C(=C/c2ccc3c(c2)OC(F)(F)O3)S1", "cell viability [%]": 95.3}
{"compound": "O=C(CCCCCN1C(=O)c2cccc3cccc(c23)C1=O)NO [Scriptaid]", "cell viability [%]": 0.32}
{"compound": "Nc1cccc(-c2cc3c(Oc4cccc(O)c4)ncnc3[nH]2)c1", "cell viability [%]": 53.4}
{"compound": "Cc1cc(C)cc(NC(=O)Cc2ccc(OC(C)(C)C(=O)O)cc2)c1 [Efaproxiral sodium]", "cell viability [%]": 106}

## Input Could you tell me which cell viability is on file for NC(CO)C(=O)NNCc1ccc(O)c(O)c1O (stereo not given) [Benserazide HCl] ?
## Output 94.2

## Input Could you tell me which cell viability is on file for CC(C)C[C@H](NC(=O)[C@H](CCc1ccccc1)NC(=O)CN1CCOCC1)C(=O)N[C@@H](Cc1ccccc1)C(=O)N[C@@H](CC(C)C)C(=O)[C@@]1(C)CO1 [Carfilzomib (PR-171)] ?
## Output 0.45

## Input Could you tell me which cell viability is on file for Cc1c(C(=O)N2CCOc3ccc(-c4ccc(N)nc4)cc3C2)ccc(S(C)(=O)=O)c1F ?
## Output 70

## Input Could you tell me which cell viability is on file for CC(C)(O)[C@H]1CC[C@@](C)(C2[C@@H](O)C[C@@]3(C)[C@@H]4C[C@H](O)C5C(C)(C)[C@@H](O)CCC56CC46CC[C@]23C)O1 (stereo not given in full) [Cycloastragenol] ?
## Output 111

## Input Could you tell me which cell viability is on file for C[S+]([O-])c1ccc(-c2nc(-c3ccc(F)cc3)c(-c3ccncc3)[nH]2)cc1 (stereo not given) ?
## Output 109

## Input Could you tell me which cell viability is on file for COc1ccc2cc(CCC(C)=O)ccc2c1 [Nabumetone] ?
## Output 92.4

## Input Could you tell me which cell viability is on file for CN1[C@@H]2CC[C@H]1C[C@@H](OC(c1ccccc1)c1ccccc1)C2 [Benztropine mesylate] ?
## Output 88

## Input Could you tell me which cell viability is on file for C=CC(=O)N1CC(N2CCN(C(=O)CNc3cc(C4(C)CC4)c(Cl)cc3O)CC2)C1 ?
## Output 112

## Input Could you tell me which cell viability is on file for OCCOc1ccc(/C(=C(/CCCl)c2ccccc2)c2ccccc2)cc1 [Ospemifene] ?
## Output 88.2

## Input Could you tell me which cell viability is on file for COc1cc(OC)c(NC(=O)Nc2cc(C)on2)cc1Cl ?
## Output 73.4

## Input Could you tell me which cell viability is on file for O=C1Cc2ccccc2N1 [Oxindole] ?
## Output 95.9

## Input Could you tell me which cell viability is on file for CC(C)=CCC[C@](C)(O)[C@H]1CC[C@]2(C)[C@@H]1[C@H](O)C[C@@H]1[C@@]3(C)CC[C@H](O[C@@H]4O[C@H](CO)[C@@H](O)[C@H](O)[C@H]4O[C@@H]4O[C@H](CO)[C@@H](O)[C@H](O)[C@H]4O)C(C)(C)[C@@H]3CC[C@]12C [20S-Ginsenoside Rg3] ?
## Output 105

## Input Could you tell me which cell viability is on file for NC(=O)N1c2ccccc2C=Cc2ccccc21 [Carbamazepine (Carbatrol)] ?
## Output 92

## Input Could you tell me which cell viability is on file for C[N+]1(C)[C@@H]2CC[C@H]1C[C@@H](OC(=O)C(O)c1ccccc1)C2 (stereo not given in full) [Homatropine Methylbromide] ?
## Output 92.9
